- Assay remarks: excess molar enthalpy (molar enthalpy of mixing); xn = mol fraction of the nth substance listed
- Condition notes: 298.15 K; 101.33 kPa; Liquid; x1 = 0.6001
Here, each record is paired with measured excess molar enthalpy data.
Lab book: enter the figure in kcal/mol, no units written.

>>> df
                                   compound  number
0  COC(F)(F)C(F)(F)C(F)(F)C(F)(F)F [1-methoxy-nonafluorobutane] + CCOCCO   0.158
1  COC(F)(F)C(F)(F)C(F)(F)C(F)(F)F [1-methoxy-nonafluorobutane] + CCCCOCCO   0.202
2  COC(F)(F)C(F)(F)C(F)(F)C(F)(F)F [1-methoxy-nonafluorobutane] + COCCO   0.154

[in] Need excess molar enthalpy of COC(F)(F)C(F)(F)C(F)(F)C(F)(F)F [1-methoxy-nonafluorobutane] + COCCOCCOC , thanks.
[out] 0.0546
